The reported measurements were obtained from BindingDB's records for doi:10.1021/jm020211+.

TARGET DESC: Adenosine receptor A3 (Homo sapiens)
Sequence (P0DMS8 whole entry): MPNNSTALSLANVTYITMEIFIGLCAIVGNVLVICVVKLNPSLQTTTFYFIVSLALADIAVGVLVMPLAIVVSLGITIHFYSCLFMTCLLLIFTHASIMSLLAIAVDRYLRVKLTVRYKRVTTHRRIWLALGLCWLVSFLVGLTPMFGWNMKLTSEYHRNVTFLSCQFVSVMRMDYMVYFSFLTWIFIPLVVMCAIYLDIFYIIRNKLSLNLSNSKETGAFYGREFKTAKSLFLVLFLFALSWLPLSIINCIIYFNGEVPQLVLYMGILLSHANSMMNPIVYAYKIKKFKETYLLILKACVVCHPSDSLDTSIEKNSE
METHOD SUMMARY: Effect on forskolin-stimulated cyclic AMP production in intact chinese hamster ovary (CHO) cell expressing the human Adenosine A3 receptor
ASSAY METRIC: pEC50
For clarity, pEC50 is expressed as the negative log10 of concentration in mol/L.

Input line: What value of pEC50 has been reported for the following compound? Nc1nc(Cl)nc2c1ncn2C1C(O)C(O)C2(CO)CC12 (stereo unspecified)
Output line: 6.10
